- Test system: Plasmodium berghei
- MEASUREMENT_PROTOCOL: Luciferase/luciferin-expressing antifolate-resistant parasites were used to infect a culture of HepG2 cells that were pre-incubated with compounds. Infected hepatocytes emit light due to the luciferase reaction. Assay results are presented as the percent inhibition of light emission compared to control. […]
- Type: functional
- TEST_CONDITIONS: sporozoite, HEPG2TOX_HILL_SLOPE 1.78, HEPG2TOX_R_SQUARED 0.942, PBLUC_HILL_SLOPE 40.1, PBLUC_R_SQUARED 0.426, read-out: LUCIFERASE INFECTION ASSAY - IC50
pIC50: −log10 of the molar value.
MEASUREMENT_LABEL: pIC50

1) NC(=S)N/N=C/c1ncc(C(F)(F)F)cc1Cl : 5.41

Hey, just so you know, these numbers are from ChEMBL document CHEMBL4483862.
